System: Mycolicibacterium smegmatis
Assay: Bacteriostatic activity against Mycobacterium smegmatis after 96 hrs by resazurin fluorescence assay
Assay type: functional
Record form. Attribute: MIC. Fill in for each entry.

Query :: Tell us which MIC value is on record for N[C@@H](CSC(Cl)=C(Cl)Cl)C(=O)N[C@@H]1[C@@H](O)[C@H](O)[C@@H](CO)O[C@H]1SC1CCCCC1
Result :: 250 µM

Query :: Please report MIC for the following molecule: N[C@@H](CSC(Cl)=C(Cl)Cl)C(=O)N[C@@H]1[C@@H](O)[C@H](O)[C@@H](CO)O[C@@H]1SC1CCCCC1
Result :: 250 µM

Query :: Give recorded MIC. CC(C)(C)OC(=O)N[C@@H](CSC(Cl)=C(Cl)Cl)C(=O)N[C@@H]1[C@@H](O)[C@H](O)[C@@H](CO)O[C@@H]1SC1CCCCC1
Result :: > 1000 µM

Query :: Item CC(C)(C)OC(=O)N[C@@H](CSC(Cl)=C(Cl)Cl)C(=O)N[C@@H]1[C@@H](O)[C@H](O)[C@@H](CO)O[C@H]1SC1CCCCC1 : provide MIC
Result :: > 1000 µM
